Cited source: patent US9156845B2

target: GST-tagged truncated LRRK2 (Homo sapiens (Human), UniProt Q5S007); assay: LRRK2 Lantha Screen kinase assay; conditions: geometric mean of 2-5 determinations unless otherwise indicated (a: >=6 determinations; b: single determination); read-out: LRRK2 WT IC50
Sequence (Q5S007 970-2527): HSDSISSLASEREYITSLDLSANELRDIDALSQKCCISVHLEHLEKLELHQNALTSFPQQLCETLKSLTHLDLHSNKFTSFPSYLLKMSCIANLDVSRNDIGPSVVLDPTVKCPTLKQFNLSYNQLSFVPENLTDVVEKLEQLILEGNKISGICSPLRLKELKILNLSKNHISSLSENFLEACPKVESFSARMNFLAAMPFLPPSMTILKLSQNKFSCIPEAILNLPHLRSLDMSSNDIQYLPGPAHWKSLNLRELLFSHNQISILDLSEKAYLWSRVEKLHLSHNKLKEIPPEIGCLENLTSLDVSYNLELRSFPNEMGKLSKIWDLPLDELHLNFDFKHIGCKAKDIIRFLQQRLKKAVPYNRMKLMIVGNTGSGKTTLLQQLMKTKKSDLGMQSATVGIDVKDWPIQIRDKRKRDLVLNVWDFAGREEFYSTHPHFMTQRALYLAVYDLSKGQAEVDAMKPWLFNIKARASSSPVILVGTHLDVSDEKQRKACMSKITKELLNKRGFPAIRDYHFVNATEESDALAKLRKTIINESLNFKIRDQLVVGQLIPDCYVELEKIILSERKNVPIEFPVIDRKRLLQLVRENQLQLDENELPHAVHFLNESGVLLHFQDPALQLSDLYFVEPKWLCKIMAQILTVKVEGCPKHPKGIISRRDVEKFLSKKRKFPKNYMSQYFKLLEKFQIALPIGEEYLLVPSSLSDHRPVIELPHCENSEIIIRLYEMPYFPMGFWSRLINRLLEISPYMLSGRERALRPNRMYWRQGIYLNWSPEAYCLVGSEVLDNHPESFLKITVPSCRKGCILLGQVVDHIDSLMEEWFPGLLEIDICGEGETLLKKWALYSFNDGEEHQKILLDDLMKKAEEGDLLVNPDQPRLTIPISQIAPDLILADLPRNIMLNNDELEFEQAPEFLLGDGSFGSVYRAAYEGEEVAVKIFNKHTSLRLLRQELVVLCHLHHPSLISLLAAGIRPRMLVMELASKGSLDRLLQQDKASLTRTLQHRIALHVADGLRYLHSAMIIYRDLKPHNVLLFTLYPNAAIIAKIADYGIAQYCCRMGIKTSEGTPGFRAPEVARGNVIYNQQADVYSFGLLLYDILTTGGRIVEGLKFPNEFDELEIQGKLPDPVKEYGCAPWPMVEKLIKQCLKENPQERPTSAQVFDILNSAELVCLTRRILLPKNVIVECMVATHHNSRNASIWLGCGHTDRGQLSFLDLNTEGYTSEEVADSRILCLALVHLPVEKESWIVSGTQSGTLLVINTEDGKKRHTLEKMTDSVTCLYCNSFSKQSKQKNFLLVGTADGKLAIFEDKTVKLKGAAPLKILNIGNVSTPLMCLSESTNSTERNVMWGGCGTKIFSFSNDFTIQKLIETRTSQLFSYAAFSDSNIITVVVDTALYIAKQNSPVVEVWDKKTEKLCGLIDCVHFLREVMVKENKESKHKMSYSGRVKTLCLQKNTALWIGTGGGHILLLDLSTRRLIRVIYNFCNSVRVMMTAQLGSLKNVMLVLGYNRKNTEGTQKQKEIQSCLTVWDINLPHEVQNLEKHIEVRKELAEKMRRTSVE
Counter-ions that a name gives are not always drawn.
quantityKind: IC50 (nM)
Answer with a number only, understood to be in nM.

In: Given N#Cc1cccc(-c2c[nH]c3ncnc(N4CCC(=O)CC4)c23)c1 [Example 132] , state its recorded IC50.
Out: 66

In: Given Clc1cccc(-c2c[nH]c3ncnc(N4CCOCC4)c23)c1 [Example 83] , state its recorded IC50.
Out: 8

In: Given N#Cc1cccc(-c2c[nH]c3ncnc(N4CCCC(O)C4)c23)c1 (stereo not drawn) [Example 138] , state its recorded IC50.
Out: 10

In: Given COCC1CN(c2ncnc3[nH]cc(-c4cccc(C#N)c4)c23)CCO1 (single isomer, unassigned) [Example 74] , state its recorded IC50.
Out: 12

In: Given COc1ccc(Cl)cc1-c1c[nH]c2ncnc(N3CCOCC3)c12 [Example 116] , state its recorded IC50.
Out: 85

In: Given c1nc(N2CCOCC2)c2c(-c3cn[nH]c3)c[nH]c2n1 [Example 8, formate salt] , state its recorded IC50.
Out: 25

In: Given Fc1ccccc1-c1c[nH]c2ncnc(N3CCOCC3)c12 [Example 84] , state its recorded IC50.
Out: 22

In: Given N#Cc1ccccc1-c1c[nH]c2ncnc(N3CCOCC3)c12 [Example 82] , state its recorded IC50.
Out: 95

In: Given OCc1cccc(-c2c[nH]c3ncnc(N4CCOCC4)c23)c1F [Example 89] , state its recorded IC50.
Out: 32

In: Given N#Cc1cccc(-c2c[nH]c3ncnc(N4CCO[C@H]5CCC[C@H]54)c23)c1 (relative stereo) [Example 208] , state its recorded IC50.
Out: 27.2

In: Given c1cc(-c2ncon2)cc(-c2c[nH]c3ncnc(N4CCOCC4)c23)c1 [Example 201] , state its recorded IC50.
Out: 129

In: Given COc1ccc(F)cc1-c1c[nH]c2ncnc(N3CCOCC3)c12 [Example 94] , state its recorded IC50.
Out: 7

In: Given COc1ccccc1-c1c[nH]c2ncnc(N3CC[C@H](F)C3)c12 [Example 175] , state its recorded IC50.
Out: 41

In: Given COc1ccccc1-c1c[nH]c2ncnc(N3CCOCC3)c12 [Example 101] , state its recorded IC50.
Out: 14

In: Given COc1cncc(-c2c[nH]c3ncnc(N4CCOCC4)c23)n1 [Example 151] , state its recorded IC50.
Out: 32

In: Given COc1cccc(F)c1-c1c[nH]c2ncnc(N3CCOCC3)c12 [Example 190] , state its recorded IC50.
Out: 25

In: Given Cc1cccc(-c2c[nH]c3ncnc(N4CCOCC4)c23)c1 [Example 107] , state its recorded IC50.
Out: 13

In: Given COc1ccc(F)cc1-c1c[nH]c2ncnc(N3CCOC(c4noc(C)n4)C3)c12 (stereo not drawn) [Example 157] , state its recorded IC50.
Out: 44

In: Given Cn1cc(-c2c[nH]c3ncnc(N4CCOCC4)c23)cn1 [Example 1] , state its recorded IC50.
Out: 13

In: Given c1cnc2c(-c3c[nH]c4ncnc(N5CCOCC5)c34)cnn2c1 [Example 216] , state its recorded IC50.
Out: 35.6

In: Given Cc1nc(CC2CN(c3ncnc4[nH]cc(-c5cccc(C#N)c5)c34)CCO2)no1 (stereo not drawn) [Example 145] , state its recorded IC50.
Out: 55

In: Given Cc1ccc(OCC2CN(c3ncnc4[nH]cc(-c5cnn(C)c5)c34)CCO2)cn1 (stereo not drawn) [Example 125] , state its recorded IC50.
Out: 54

In: Given COc1ccccc1-c1c[nH]c2ncnc(N(C)C)c12 [Example 173] , state its recorded IC50.
Out: 43

In: Given CC1CCN(c2ncnc3[nH]cc(-c4cccc(C#N)c4)c23)CC1 [Example 62] , state its recorded IC50.
Out: 91

In: Given Cn1cc(-c2c[nH]c3ncnc(N4CCOCC4)c23)cc1C#N [Example 217] , state its recorded IC50.
Out: 6.37

In: Given C[C@H]1CCCN(c2ncnc3[nH]cc(-c4ccc5c(c4)CNC5=O)c23)C1 [Example 50] , state its recorded IC50.
Out: 33

In: Given N#Cc1cccc(-c2c[nH]c3ncnc(N4CC5CC(C4)O5)c23)c1 [Example 113] , state its recorded IC50.
Out: 58

In: Given N#Cc1cccc(-c2c[nH]c3ncnc(N4CCCC(C#N)C4)c23)c1 (stereo not drawn) [Example 21] , state its recorded IC50.
Out: 57

In: Given COc1cc(F)cc(-c2c[nH]c3ncnc(N4CCC(F)CC4)c23)c1 [Example 160] , state its recorded IC50.
Out: 84

In: Given C[C@H]1CCCN(c2ncnc3[nH]cc(-c4cnn(C)c4)c23)C1 [Example 17] , state its recorded IC50.
Out: 14

In: Given Cc1c(C#N)cccc1-c1c[nH]c2ncnc(N3CCOCC3)c12 [Example 203] , state its recorded IC50.
Out: 13.2

In: Given CN(C)c1ncnc2[nH]cc(-c3ccccc3)c12 [Example 68] , state its recorded IC50.
Out: 63

In: Given Cc1cncc(-c2c[nH]c3ncnc(N4CCOCC4)c23)c1 [Example 149] , state its recorded IC50.
Out: 18
